system: Mycobacterium tuberculosis H37Rv; assay: Primary screen (Cycle 1): MIC, IC50, IC90 under aerobic conditions; assay type: cell-based; settings: Mycobacterium tuberculosis; M. tuberculosis H37Rv, aerobic conditions, primary screen
metric.name: IC90

Consider the worked cases shown below.
CCOC(=O)c1cc(C(=O)c2ccccc2)n2ccc(-c3cc[n+](CC(=O)c4ccc(C)cc4)cc3)cc12.[Br-] [Compound 6a] ... 15 µM
CCOC(=O)c1cc(C(=O)c2ccc(C)cc2)n2ccc(-c3cc[n+](CC(=O)c4ccc([N+](=O)[O-])cc4)cc3)cc12 [Compound 6k] ... > 200 µM
CCOC(=O)c1cc(C(=O)c2ccc(OC)cc2)n2ccc(-c3cc[n+](CC(=O)c4ccc(Br)cc4)cc3)cc12 [Compound 6l] ... > 200 µM
CCOC(=O)c1cc(C(=O)c2ccc(Br)cc2)n2ccc(-c3cc[n+](CC(=O)c4cccc(OC)c4)cc3)cc12 [Compound 6h] ... 14 µM

Q: Please look at CCOC(=O)c1cc(C(=O)c2ccc(Br)cc2)n2ccc(-c3cc[n+](CC(=O)c4ccc(C)cc4)cc3)cc12.[Br-] [Compound 6f] and tell me its recorded IC90 on Mycobacterium tuberculosis H37Rv.
Result: 19 µM

====

test: Cytotoxicity, THP-1 cell viability (CellTiter-Glo); details: human
metric.name: IC50 at 3 days (µM)
Answers are plain numbers, in µM.

CCOC(=O)c1cc(C(=O)c2ccccc2)n2ccc(-c3cc[n+](CC(=O)c4ccc(C)cc4)cc3)cc12.[Br-] ... 2.9

Pending compound:
Q: Report IC50 at 3 days for CCOC(=O)c1cc(C(=O)c2ccc(Cl)cc2)n2ccc(-c3cc[n+](CC(=O)c4ccc(C)cc4)cc3)cc12
Result: 3.8

====

assay: in vitro; details: human
Field: IC50 at 3 days. Provide a value for each of the compounds that follow.
Give bare numbers, in µM.

Look up IC50 at 3 days for the entries below, preserving their order.
1. CCOC(=O)c1cc(C(=O)c2ccc(Cl)cc2)n2ccc(-c3cc[n+](CC(=O)c4cccc(OC)c4)cc3)cc12
2. CCOC(=O)c1cc(C(=O)c2ccc(Br)cc2)n2ccc(-c3cc[n+](CC(=O)c4cccc(OC)c4)cc3)cc12

Result:
1. 3.9
2. 3.8

====

assay: In vitro microsomal stability assay; details: human, s9, NADPH-dependent CLint, 1 μM, 37 °C
metric.name: microsomal CLint at 1 μM (µL/min/mg)
One number for each entry, in µL/min/mg.

Q: Report microsomal CLint at 1 μM for COc1ccc2c(c1)[C@]13CCCC[C@@H]1[C@H](C2)N(C)CC3 [Dextromethorphan, reference compound]
Result: 24.3

====

assay: Caco-2 permeability assay; settings: human, Caco-2
metric.name: efflux ratio
Give bare numbers.

Q: Report efflux ratio for CCOC(=O)c1cc(C(=O)c2ccc(Cl)cc2)n2ccc(-c3cc[n+](CC(=O)c4ccc(C)cc4)cc3)cc12
Result: 1.7

====

Molecular target: UniProtKB P10632
Sequence (P10632 1-490): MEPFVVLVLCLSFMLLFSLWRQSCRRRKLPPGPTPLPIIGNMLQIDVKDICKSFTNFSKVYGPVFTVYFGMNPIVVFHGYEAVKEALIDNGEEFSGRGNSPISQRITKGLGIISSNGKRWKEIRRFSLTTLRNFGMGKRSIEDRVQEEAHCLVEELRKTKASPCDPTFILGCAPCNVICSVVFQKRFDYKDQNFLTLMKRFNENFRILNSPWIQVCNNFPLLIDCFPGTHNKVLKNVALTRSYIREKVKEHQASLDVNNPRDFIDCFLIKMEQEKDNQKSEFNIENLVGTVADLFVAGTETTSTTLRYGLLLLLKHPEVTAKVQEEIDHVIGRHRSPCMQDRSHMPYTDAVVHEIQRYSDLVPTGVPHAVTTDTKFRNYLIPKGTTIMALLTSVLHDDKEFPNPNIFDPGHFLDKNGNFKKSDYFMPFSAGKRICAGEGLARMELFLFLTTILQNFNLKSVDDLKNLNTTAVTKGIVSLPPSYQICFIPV
metric.name: IC50

Q: Please look at CCOC(=O)c1cc(C(=O)c2ccc(Cl)cc2)n2ccc(-c3cc[n+](CC(=O)c4ccc(C)cc4)cc3)cc12 [Compound 6i] and tell me its recorded IC50 on UniProtKB P10632.
Result: > 5 µM
